Assay: Pharmacokinetics after IV and PO dose in beagle dogs
Assay type: in vivo
Details: dog, plasma, 0.8 mg/kg; IV 0.80 mg/kg, Beagle dogs
readout.name: Vd (L/kg)
Unit L/kg implied. Number only.

Which Vd reading was recorded for the compound O=C(O)c1ccc2c(c1)nc(Nc1cccc(Cl)c1)c1ccncc12 ?
4.1

====

Experiment: Pharmacokinetics after IV and PO dose in SD rats
Type: in vivo
Conditions: Sprague-Dawley, rat, plasma; PO 8.06 mg/kg, SD-Rats
Procedure: The pharmacokinetics properties of drugs were also investigated in SD rats and beagle dogs following an intravenous (IV) bolus and oral (PO) doses of drug using similar methods. Blood samples were collected at predetermined times and the plasma separated. Drug levels were quantified by the LC/MS/MS method described below. […] The terminal t1/2 and C0 were calculated using the last three and the first three data points, respectively […]
readout.name: Cmax
Include the unit right after the number.

Which Cmax reading was recorded for the molecule C#Cc1cccc(Nc2nc3cc(C(=O)O)ccc3c3cncnc23)c1 [Compound A2] ?
6670 ng/mL

====

Molecular target: recombinant human PIM1 (Homo sapiens (Human), UniProt P11309)
Sequence (P11309 whole entry): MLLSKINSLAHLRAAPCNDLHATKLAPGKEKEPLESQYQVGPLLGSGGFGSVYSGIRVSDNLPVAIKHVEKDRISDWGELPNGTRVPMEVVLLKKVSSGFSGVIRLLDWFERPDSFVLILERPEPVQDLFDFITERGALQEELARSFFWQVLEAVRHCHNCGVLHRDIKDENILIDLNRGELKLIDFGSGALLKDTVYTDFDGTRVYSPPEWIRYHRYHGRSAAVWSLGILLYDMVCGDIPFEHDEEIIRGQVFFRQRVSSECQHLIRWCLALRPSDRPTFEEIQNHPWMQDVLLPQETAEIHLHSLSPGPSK
Assay: PIM-1 kinase activity in cell-free in vitro assay
Format: biochemical
Settings: cell-free
readout.name: IC50 (nM)
Unit nM implied. Number only.

Use the examples below as a reference point.
{"molecule": "O=C(O)c1ccc2c(c1)nc(Nc1cc(F)cc(F)c1)c1ccncc12", "readout.name": "IC50", "test.value": 111}
{"molecule": "c1ccc(Nc2nc3cc(-c4nnn[nH]4)ccc3c3sccc23)cc1", "readout.name": "IC50", "test.value": 262}
{"molecule": "O=C(O)c1ccc2c(c1)nc(NCCCc1ccccc1)c1ccncc12 [drawing 1561]", "readout.name": "IC50", "test.value": 441}
{"molecule": "O=C(O)c1ccc2c(c1)nc(NCCN1CCCC1)c1ccsc12", "readout.name": "IC50", "test.value": 244}
{"molecule": "O=C(O)c1ccc2c(c1)nc(NCc1ccccc1)c1ccncc12 [drawing 1557]", "readout.name": "IC50", "test.value": 675}

Which IC50 reading was recorded for the molecule O=C(O)c1ccc2c(c1)nc(Nc1ccc(F)cc1)c1ccsc12 ?
320

Which IC50 reading was recorded for the molecule N#Cc1cc(F)cc(Nc2nc3cc(C(=O)O)ccc3c3sccc23)c1 ?
252

Which IC50 reading was recorded for the molecule CN(C)CCNC(=O)c1cccc(Nc2nc3cc(-c4nnn[nH]4)ccc3c3sccc23)c1 ?
380

Which IC50 reading was recorded for the molecule O=C(O)c1cccc(Nc2nc3cc(-c4nnn[nH]4)ccc3c3sccc23)c1 ?
648

Which IC50 reading was recorded for the molecule O=C(O)c1ccc2c(c1)nc(Nc1cccc(F)c1)c1ccncc12 ?
143

====

Target: recombinant human PIM1 (Homo sapiens (Human))
Experiment: PIM-1 kinase activity in cell-free in vitro assay
Type: biochemical
Conditions: cell-free
Checkbox rule: IC50 lower than 400 nM = condition met; IC50 not lower than 400 nM = condition not met.

{"molecule": "O=C(O)c1ccc2c(c1)nc(Nc1cccc(F)c1)c1ncncc12", "class.assignment": "condition met"}

Lab log: compare recorded IC50 with 400 nM; is it strictly lower for Fc1cc(F)cc(Nc2nc3cc(-c4nnn[nH]4)ccc3c3sccc23)c1 ?
condition not met

Lab log: compare recorded IC50 with 400 nM; is it strictly lower for Fc1cc(Cl)cc(Nc2nc3cc(-c4nnn[nH]4)ccc3c3sccc23)c1 ?
condition not met

Lab log: compare recorded IC50 with 400 nM; is it strictly lower for O=C(O)c1ccc2c(c1)nc(NCCc1ccccc1)c1ccncc12 [drawing 1511] ?
condition not met

Lab log: compare recorded IC50 with 400 nM; is it strictly lower for O=C(O)c1ccc2c(c1)nc(Nc1cc(F)cc(F)c1)c1ccsc12 ?
condition met
